# Tested on: MDA-N
# assay: NCI tumour cell line growth inhibition, 48 h
Calls of active or inactive are those of the source. Rule as the data show it: active = GI50 up to about 1.1 µM and inactive = higher.
Permitted responses: active, inactive

INSERT INTO assay_data (molecule, class_assignment) VALUES
  ('CC(C)=C[C@H]1C[C@H](C)[C@H]2CC[C@H](C)c3c2c1c(C)c1ncoc31', 'inactive'),
  ('O=C1CC(=O)NC(NN2C(=O)/C(=C/c3ccc(Cl)c(Cl)c3)N=C2c2ccccc2)=N1', 'inactive'),
  ('COc1cc([C@@H]2c3cc4c(cc3[C@@H](OC3OC5CO[C@@H](c6cccs6)OC5C(O)C3O)[C@H]3COC(=O)[C@H]23)OCO4)cc(OC)c1O (some centres undefined)', 'active');

Hi team, can someone confirm the assay call for CC(=O)OC1CC[C@]2(C)C3CC[C@@]4(C)C(CCC4[C@H](C)CCCC(C)C)[C@@H]3CCC2(Br)C1 (some centres undefined) ? inactive

Kindly provide the recorded test outcome for the following molecule: O=C(Cc1ccccc1)NNc1nc(NNC(=O)c2ccncc2)nc(Nc2ccc(Cl)cc2)n1 inactive

Hey, what did the test say about CCCCCC(C)C[C@H]1CO[C@H](c2ccc[nH]2)N[C@H]1C(=O)OC (some centres undefined) ? inactive

----------
# Tested on: M14
# assay: NCI tumour cell line growth inhibition, 48 h
The source made the active and inactive calls. Rule as the data show it: active = GI50 up to about 1.1 µM and inactive = higher.
The categories you may choose from are active, inactive

INSERT INTO results (compound, class_assignment) VALUES
  ('O=[N+]([O-])C(C(Cl)=C(Cl)Cl)=C(N(Cc1ccccc1)Cc1ccccc1)N(Cc1ccccc1)Cc1ccccc1', 'inactive'),
  ('COc1cc(NS(C)(=O)=O)ccc1NCc1c2ccccc2nc2ccccc12', 'inactive'),
  ('COc1ccc(C(=O)C(c2ccc(OC)cc2)C2(O)C(=O)Nc3ccc([N+](=O)[O-])cc32)cc1 (stereo not given)', 'inactive');

// return assay outcome for N#CC1(C#N)C(c2ccccc2)NC23CCCCC2C1(C#N)C(=O)N3 (stereo not given) inactive

Assay result, entry O=C(c1ccco1)N(C(=S)N1CCN(c2ccccn2)CC1)C1CCCCC1 — outcome? inactive

Outcome logged for NC(=O)c1ncn2c(=O)n(CCCl)nnc12 [MITOZOLOMIDE] in this assay: inactive

Assay result, entry COc1cc2cc3c4c(cc(OC)c(OC)c4c2cc1OC)CCN3C(=O)CCC(=O)NCCCN(C)C — outcome? inactive

Hey, what did the test say about Cc1cc(C)c2c(O)cc(-c3cccc4ccccc34)nc2n1 ? active

# outcome recorded in this test, key = CC1CCC2C(C)(C)CC3(C)CCC1C23O (stereo not given) inactive

Per the records of this test, what outcome belongs to Cc1nnc(-n2c(O)cc(=O)n(-c3ccccc3)c2=S)nc1/C=C/c1ccc(N(C)C)cc1 ? inactive

----------
# Test system: DMS-273
# assay: NCI tumour cell line growth inhibition, 48 h
Active and inactive are the calls of the source. Cut-off read from the data, not from the text of the source: active = GI50 up to about 1.1 µM and inactive = higher.
value_type: GI50

INSERT INTO assay_data (compound, value_type, measurement) VALUES
  ('COc1ccc2c(c1)CCc1cnn(C3OC(COC(C)=O)C(OC(C)=O)C(OC(C)=O)C3OC(C)=O)c1-2 (stereo not given)', 'GI50', '> 100 µM (inactive)');

Batch: GI50 for all items listed.
1. Cc1cc(OC(=O)c2c(C)cc(OC(=O)c3c(C)cc(O)cc3O)cc2O)cc(O)c1C(=O)O
2. C=C(c1ccccc1)[C@@]1(O)CC[C@@H]1N(CC#N)Cc1ccccc1
3. CC(N)Cc1ccc(Cl)c(Cl)c1 (stereo not given)

["> 100 µM (inactive)", "20.5 µM (inactive)", "39.4 µM (inactive)"]

Hello, I would appreciate it if you could give GI50 for each entry below.
1. CC1=CC(=O)c2cccc(O)c2C1=O
2. CCCN(CCCCC(NC(C)=O)C(=O)NCc1ccccc1)C(=O)NCCCl (stereo not given)
3. C#CC[N+](C)(CC#C)CC#C
4. O=C1CCCCC1C1(O)C(=O)Nc2cc(F)ccc21 (stereo not given)
5. O=S(=O)(/C=C/CS(=O)(=O)c1ccccc1)c1ccccc1

1. 2.42 µM (inactive)
2. > 100 µM (inactive)
3. > 100 µM (inactive)
4. > 100 µM (inactive)
5. 29.8 µM (inactive)

----------
Exercise: for every item that follows, state its recorded GI50.
# Tested on: A549
# assay: NCI tumour cell line growth inhibition, 48 h
Activity calls are given as the source filed them. Cut-off read from the data, not from the text of the source: active = GI50 up to about 1.1 µM and inactive = higher.

INSERT INTO assay_data (compound, measurement) VALUES
  ('CCOC(=O)N1CCC2(CC1)C[C@](C)(C(C)=O)C(C)O2 (some centres not stated)', '> 100 µM (inactive)'),
  ('Cc1ccc(NC(=O)/C(Cc2cc(=O)oc3cc(O)ccc23)=N\NC(=O)C[N+](C)(C)C)cc1C', '> 100 µM (inactive)'),
  ('CC(=O)c1ccc(NC(=O)/C(CC(=O)/C=C/c2ccccc2)=N/NC(N)=S)cc1', '> 100 µM (inactive)'),
  ('C[C@@H]1C(=O)O[C@@H]2C[C@@]1(C)[C@@H]1C(=O)C3(O)OC14C2(C)OC(=O)[C@@]4(O)CCC1C3C(O)C=C2CC=CC(=O)[C@@]21C (some centres not stated)', '40.8 µM (inactive)'),
  ('O=C1CCCCC1C1(O)C(=O)Nc2cc(F)ccc21 (configuration not stated)', '> 100 µM (inactive)'),
  ('CC1=C(C(=O)N(C)c2ccc(Cl)c(C(=O)OC(C)C)c2)SCCO1', '90.2 µM (inactive)');

If you can, please state the reported GI50 value of CC(=O)OC1CC[C@]2(C)C3CC[C@@]4(C)C(CCC4[C@H](C)CCCC(C)C)[C@@H]3CCC2(Br)C1 (some centres not stated) . 19.8 µM (inactive)

----------
Can you tell me GI50 for the items I'm about to list?
# Test system: OVCAR-5
# assay: NCI tumour cell line growth inhibition, 48 h
Calls of active or inactive are those of the source. No stated cut-off is given here; in the data, active = GI50 up to about 1.1 µM and inactive = higher.

INSERT INTO measurements (molecule, measurement) VALUES
  ('CN/N=C(/CCN1CCCC1)CC(c1ccccc1)c1c(O)c2ccccc2oc1=O (stereo not given)', '> 100 µM (inactive)'),
  ('Clc1ccccc1CN1COc2c(cc(Cl)c3cccnc23)C1', '4.28 µM (inactive)');

State the recorded GI50 for every item in the following list.
1. Nc1ccc(Oc2ccc(C34CC5CC6C3CC3CC4C(C5)C6(c4ccc(Oc5ccc(N)c(O)c5)cc4)C3)cc2)cc1O
2. CC(C)(C)OC(=O)N1CCC2(C)CC(=O)CC=C12 (stereo not given)
3. CC1(C)CC23CC(C)(C)c4cccc(c42)OCc2ccc4ccc5ccc(nc5c4n2)COc2cccc1c23
4. O=C(O)C(CSC(c1ccccc1)(c1ccccc1)c1ccccc1)/N=C/c1cccs1 (stereo not given)
5. COC1=C2C[C@](OC)(C#CC=CC#CC2O)CC1(C)C (stereo not given in full)
6. Cc1cccc(C)c1NC(=O)CCCC(=O)C1CCC/C1=N\NC(=O)C(=O)NN (stereo not given)
7. COc1ccc(/C=N/NS(=O)(=O)c2ccc(/C=C3\NC(=O)NC3=O)cc2)cc1

1. 2 µM (inactive)
2. > 100 µM (inactive)
3. > 50 µM (inactive)
4. 5.45 µM (inactive)
5. > 100 µM (inactive)
6. > 100 µM (inactive)
7. > 100 µM (inactive)

What GI50 value was documented for this molecule, COc1cc(C(c2ccc3c(c2)OCO3)N2C(=O)CCC2C(=O)O)cc(OC)c1OC (stereo not given) ? > 100 µM (inactive)

----------
# Tested on: CAKI-1
# assay: NCI tumour cell line growth inhibition, 48 h
Active and inactive are the calls of the source. Rule as the data show it: active = GI50 up to about 1.1 µM and inactive = higher.
Form entry, call: pick from active, inactive

INSERT INTO measurements (compound, class_assignment) VALUES
  ('Cc1cc2[nH]c3c(C#N)c(-c4ccccc4)c(/C=N/c4ccc(F)cc4)c(=O)n3c2cc1C', 'inactive');

What outcome does the record of this test show for COc1ccc(C[C@H]2COC(=O)[C@@H]2Cc2cccc(Br)c2)cc1OC ? inactive

Test call, this compound: OC1c2ccccc2CCC1C(O)(C(F)(F)F)C(F)(F)F (configuration not stated) inactive

----------
# Test system: SN12C
# assay: NCI tumour cell line growth inhibition, 48 h
Activity calls are given as the source filed them. Rule as the data show it: active = GI50 up to about 1.1 µM and inactive = higher.
Response enum: 1 (yes) (active), 0 (no) (inactive)

The following compounds have reported results that may help.
INSERT INTO results (compound, class_assignment) VALUES
  ('CN1CN(c2ccccc2)C2(CCN(CCCC3(c4cccs4)OCCO3)CC2)C1=O', '0 (no)'),
  ('COc1ccc(/C=C2\CN(C)C/C(=C\c3ccc(OC)c(OC)c3OC)C2=O)c(OC)c1OC', '1 (yes)'),
  ('Cc1ccc(-c2n[nH]c(=O)n2N)cc1', '0 (no)'),
  ('COc1cc(C(c2ccc3c(c2)OCO3)N2C(=O)CCC2C(=O)O)cc(OC)c1OC (centres undefined)', '0 (no)'),
  ('C[C@H]1O[C@@H](O[C@H]2[C@@H](O)C[C@H](O[C@H]3[C@@H](O)C[C@H](O[C@H]4CC[C@@]5(C)[C@H](CC[C@@H]6[C@@H]5CC[C@]5(C)[C@@H](C7=CC(=O)OC7)[C@@H](O)C[C@]65O)C4)O[C@@H]3C)O[C@@H]2C)C[C@H](O)[C@@H]1O', '1 (yes)');

Kindly provide the recorded test outcome for the following compound: Cc1ccc2c(c1C)C(=O)/C(=C/c1cccc(C)c1C(=O)O)C2 0 (no)

Test call, this compound: O=C1CCSC2=C1SCc1sccc12 0 (no)

Please state the recorded outcome for this compound: COc1cc(Nc2ccc3c(c2)CCC3)nc(OC)n1 0 (no)

Assay result, entry O=c1c2c3c(sc2nc2n1N=CN(c1ccc(F)cc1)C2)CCCC3 — outcome? 0 (no)

Any idea what this test logged for CC(C)=C[C@H]1C[C@H](C)[C@H]2CC[C@H](C)c3c2c1c(C)c1ncoc31 ? 0 (no)

Status in this test for Oc1nc(S)nc2c1C(c1ccc(Cl)cc1)c1c(O)nc(S)nc1O2 ? 0 (no)

How was O=C1N/C(=N/N=C\C(O)C(O)C(O)C(O)CO)N/C1=C/c1ccc(Cl)cc1 (centres undefined) classified in this test? 0 (no)

// outcome(item) with item = O=C(/C=C/c1ccccc1)Oc1ccc(C(=O)/C=C/c2ccccc2)cc1 0 (no)

Per the records of this test, what outcome belongs to O=[N+]([O-])C(/C=C(\Cl)[N+](=O)[O-])=C(N1CCCCC1)N1CCCCC1 ? 0 (no)

Could you kindly confirm the outcome this assay logged for CC1(C)CC23CC(C)(C)c4cccc(c42)OCc2ccc4ccc5ccc(nc5c4n2)COc2cccc1c23 ? 0 (no)
